tested-on: Serine/threonine-protein kinase Chk2 (Homo sapiens) (UniProt O96017)
Sequence (O96017 whole entry): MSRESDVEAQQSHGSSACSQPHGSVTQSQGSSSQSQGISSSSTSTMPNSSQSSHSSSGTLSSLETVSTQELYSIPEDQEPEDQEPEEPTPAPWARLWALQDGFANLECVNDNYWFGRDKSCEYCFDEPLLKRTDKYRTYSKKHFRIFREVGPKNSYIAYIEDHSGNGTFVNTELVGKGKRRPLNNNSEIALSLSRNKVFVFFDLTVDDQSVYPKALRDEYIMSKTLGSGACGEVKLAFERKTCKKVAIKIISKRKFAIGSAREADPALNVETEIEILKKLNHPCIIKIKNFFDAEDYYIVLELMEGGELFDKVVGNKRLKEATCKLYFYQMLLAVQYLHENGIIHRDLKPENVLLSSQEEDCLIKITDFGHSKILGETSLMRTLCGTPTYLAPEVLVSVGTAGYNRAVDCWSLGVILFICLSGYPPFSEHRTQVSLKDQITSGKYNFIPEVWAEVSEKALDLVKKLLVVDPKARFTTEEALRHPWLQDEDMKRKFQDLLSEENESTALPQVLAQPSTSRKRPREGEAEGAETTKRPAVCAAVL
particulars: at 1 µM
Reported inhibition is given for each of the following compounds.

                               structure  quantity_kind  result
0  Cc1cccc(-c2n[nH]cc2-c2ccc3ncccc3n2)n1     inhibition  -0.16%

inhibition reported for this compound `COc1cc2ncn(-c3cc(OCc4ccccc4Cl)c(C(N)=O)s3)c2cc1OC` : -0.53%

For reference, reported inhibition for `O=C1Nc2ccc(C(=O)c3ccco3)cc2C1=Cc1cc(Cl)c(O)c(Cl)c1` stands at 12.5%

Item: `COc1cc(C)c(NC(=O)CN(C)C)cc1Nc1nc(Nc2cccc(F)c2C(N)=O)c2cc[nH]c2n1` | inhibition: 76.2%

---

tested-on: Tyrosine-protein kinase JAK1 (Homo sapiens) (UniProt P23458)
Sequence (P23458 whole entry): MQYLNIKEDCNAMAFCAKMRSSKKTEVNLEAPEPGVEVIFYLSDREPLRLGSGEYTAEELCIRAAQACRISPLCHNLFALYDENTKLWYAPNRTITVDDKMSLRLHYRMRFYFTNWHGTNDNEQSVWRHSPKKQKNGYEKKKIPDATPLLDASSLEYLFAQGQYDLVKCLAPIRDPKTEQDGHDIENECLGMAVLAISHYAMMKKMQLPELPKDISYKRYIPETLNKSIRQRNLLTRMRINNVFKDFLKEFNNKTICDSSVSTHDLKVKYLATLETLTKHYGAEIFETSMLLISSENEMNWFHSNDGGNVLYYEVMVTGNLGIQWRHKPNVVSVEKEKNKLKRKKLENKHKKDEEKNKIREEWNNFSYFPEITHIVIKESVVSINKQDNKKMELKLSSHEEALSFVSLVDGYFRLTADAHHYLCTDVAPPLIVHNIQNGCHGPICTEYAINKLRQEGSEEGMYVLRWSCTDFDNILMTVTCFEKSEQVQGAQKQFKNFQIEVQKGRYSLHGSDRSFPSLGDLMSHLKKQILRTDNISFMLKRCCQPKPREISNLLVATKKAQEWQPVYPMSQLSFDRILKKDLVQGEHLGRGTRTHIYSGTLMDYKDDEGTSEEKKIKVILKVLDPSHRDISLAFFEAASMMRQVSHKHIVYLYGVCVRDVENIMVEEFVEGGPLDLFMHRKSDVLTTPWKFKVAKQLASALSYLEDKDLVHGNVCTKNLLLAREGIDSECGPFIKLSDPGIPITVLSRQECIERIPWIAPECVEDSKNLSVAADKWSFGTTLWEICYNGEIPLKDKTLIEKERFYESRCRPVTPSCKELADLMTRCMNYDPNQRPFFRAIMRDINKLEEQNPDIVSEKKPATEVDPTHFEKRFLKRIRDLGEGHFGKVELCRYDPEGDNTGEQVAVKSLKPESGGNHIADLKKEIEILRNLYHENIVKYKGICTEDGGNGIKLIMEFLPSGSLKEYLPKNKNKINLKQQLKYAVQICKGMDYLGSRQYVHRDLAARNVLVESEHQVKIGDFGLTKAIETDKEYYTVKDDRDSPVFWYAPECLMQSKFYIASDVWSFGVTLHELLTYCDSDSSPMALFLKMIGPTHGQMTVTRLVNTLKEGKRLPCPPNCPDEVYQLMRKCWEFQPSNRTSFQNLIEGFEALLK
particulars: at 0.1 µM
Description: GSK_PKIS: JAK1 mean inhibition at 0.1 uM [Nanosyn]
quantity-kind: inhibition (%)
Give a bare numeral; the unit % is implied.

Reference set, count: 5
In [3]: df
Out[3]:
                                  structure                                 tested_on  quantity_kind  readout_number
0  [O-][S+]1CCN(Cc2ccc(-c3ccc4ncnc(Nc5ccc(OCc6ccccc6)c(F)c5)c4c3)o2)CC1  Tyrosine-protein kinase JAK1 (Homo sapiens) (UniProt P23458)     inhibition            0.52
1  COC(=O)Nc1nc2cc(Oc3cccc(NC(=O)Nc4cc(C(F)(F)F)ccc4F)c3)ccc2[nH]1  Tyrosine-protein kinase JAK1 (Homo sapiens) (UniProt P23458)     inhibition            0.78
2  CC(=O)Nc1cccc(C#Cc2cncnc2Nc2ccc(OCc3cccc(F)c3)c(Cl)c2)n1  Tyrosine-protein kinase JAK1 (Homo sapiens) (UniProt P23458)     inhibition            3.25
3  CS(=O)(=O)CCNCc1nc(-c2ccc3ncnc(Nc4ccc(F)c(Cl)c4)c3c2)cs1  Tyrosine-protein kinase JAK1 (Homo sapiens) (UniProt P23458)     inhibition            2.86
4  c1cnn2ncc(-c3ccnc(Nc4ccc5c(c4)OCCO5)n3)c2c1  Tyrosine-protein kinase JAK1 (Homo sapiens) (UniProt P23458)     inhibition            8.27

Turning now to a further record.
Lookup result for `COc1cccc(-n2ncc3c(N/N=C/c4cccc(F)c4)ncnc32)c1` ; measured inhibition: 2.37

---

Attribute: inhibition
tested-on: Serine/threonine-protein kinase PLK1 (Homo sapiens)
particulars: at 1 µM
Number only, in %; omit the unit.

In [3]: df
Out[3]:
                                  structure  quantity_kind  units_symbol  readout_number
0  [O-][S+]1CCN(Cc2ccc(-c3ccc4ncnc(Nc5ccc(OCc6ccccc6)c(F)c5)c4c3)o2)CC1     inhibition             %            1.22
1     Cc1cccc(-c2n[nH]cc2-c2ccc3ncccc3n2)n1     inhibition             %            3.07
2  CS(=O)(=O)Nc1ccc(N/C=C2\C(=O)Nc3ccccc32)cc1     inhibition             %           -1.15
3       CCn1c(-c2nonc2N)nc2c(N3CCCC3)nccc21     inhibition             %           -0.08

Continue with the next compound.
inhibition reading for `COC(=O)Nc1nc2cc(Oc3ccc(NC(=O)Nc4cccc(C(=O)O)c4)cc3)ccc2[nH]1` : 0.8

Value source: ChEMBL document CHEMBL1961873
